Listed here: items and their measured polymerase ribozyme fitness (log ratio).
B1: TPR 5TU (parent)
chain: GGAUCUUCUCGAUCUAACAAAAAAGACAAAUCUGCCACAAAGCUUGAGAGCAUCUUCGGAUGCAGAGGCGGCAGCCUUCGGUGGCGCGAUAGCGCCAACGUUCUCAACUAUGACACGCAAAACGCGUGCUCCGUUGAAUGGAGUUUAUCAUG

Variants of: B1
Assay explanation: polymerase ribozyme fitness, log enrichment relative to wild type (log ratio); higher = more active; in vitro selection for triplet polymerase activity
Variants at the floor of the assay were thinned out.
API note: the answer field is a bare number with no unit suffix.

Below, each entry is followed by its recorded polymerase ribozyme fitness (log ratio) result.
[
  {
    "Mutant name": "A37G A52C A97C",
    "Recorded metric": "polymerase ribozyme fitness (log ratio)",
    "Readout number": -3.67
  },
  {
    "Mutant name": "A17U A49G C85U C116A",
    "Recorded metric": "polymerase ribozyme fitness (log ratio)",
    "Readout number": -0.0919
  },
  {
    "Mutant name": "G59A A60G G94U C95A",
    "Recorded metric": "polymerase ribozyme fitness (log ratio)",
    "Readout number": -1.74
  },
  {
    "Mutant name": "C35U C95G",
    "Recorded metric": "polymerase ribozyme fitness (log ratio)",
    "Readout number": -1.22
  }
]

Moving on to another variant below.
I am curious: what polymerase ribozyme fitness (log ratio) value has been reported for C8U A12G A52G A98U ?
-2.99
